Target Or System: CaM C-domain fragment, residues 76 to 148 (CaM_(76–148)) (mammalian (no species named), UniProt P0DP23 77-149)
Experimental Protocol: fluorescence polarisation
Value Kind: pKd
Here pKd is given on a logarithmic scale as minus log10 of the concentration in mol/L.

State the recorded pKd for this entry: {5,6‑carboxyfluorescein}-SRYGLLIKAFSMTAAETARRTREFR-NH2 [Fl–hRyR1(1975–1999)p: hRyR1(1975–1999)p with a 5,6-carboxyfluorescein moiety at the N-terminus] 5.04
